Value source: patent US20240166765A1

Molecular target: T1, Macaca mulatta TF on RF/6A cells (Macaca mulatta, UniProt P13726 33-294 (human entry))
T1 construct: also called TF-positive Macaca mulatta RF/6A cells; cynomolgus TF (cTF)
T1 chain: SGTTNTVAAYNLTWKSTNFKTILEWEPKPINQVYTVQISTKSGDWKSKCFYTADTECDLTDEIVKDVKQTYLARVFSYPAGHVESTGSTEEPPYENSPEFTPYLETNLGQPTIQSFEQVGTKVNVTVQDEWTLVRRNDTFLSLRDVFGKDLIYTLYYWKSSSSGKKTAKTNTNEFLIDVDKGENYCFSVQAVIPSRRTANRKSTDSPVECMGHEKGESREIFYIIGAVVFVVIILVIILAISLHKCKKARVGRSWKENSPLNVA
Assay: flow cytometry on Macaca mulatta RF/6A cells
Observed Property: EC50 (nM)
Quick note: give the figure in nM, leave out the unit.

Query: EC50 lookup needed for anti-TF antibody 39A (antibody, human IgG1, V domains shown, Human IgG1) VH: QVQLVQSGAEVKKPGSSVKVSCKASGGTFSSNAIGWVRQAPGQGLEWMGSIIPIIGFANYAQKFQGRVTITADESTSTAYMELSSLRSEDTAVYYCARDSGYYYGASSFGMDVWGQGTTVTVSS VL: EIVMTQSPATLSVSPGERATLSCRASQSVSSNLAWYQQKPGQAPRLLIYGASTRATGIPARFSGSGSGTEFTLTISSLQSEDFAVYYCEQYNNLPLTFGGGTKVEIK , thanks.
Reply: 0.27
